From: patent US20250368640A1

Could you please report measured IC50 for the items listed next?
Experimental Target: FLT3-ITD (Homo sapiens, UniProt P36888, ITD)
Sequence (P36888 whole entry, looked up, change not shown): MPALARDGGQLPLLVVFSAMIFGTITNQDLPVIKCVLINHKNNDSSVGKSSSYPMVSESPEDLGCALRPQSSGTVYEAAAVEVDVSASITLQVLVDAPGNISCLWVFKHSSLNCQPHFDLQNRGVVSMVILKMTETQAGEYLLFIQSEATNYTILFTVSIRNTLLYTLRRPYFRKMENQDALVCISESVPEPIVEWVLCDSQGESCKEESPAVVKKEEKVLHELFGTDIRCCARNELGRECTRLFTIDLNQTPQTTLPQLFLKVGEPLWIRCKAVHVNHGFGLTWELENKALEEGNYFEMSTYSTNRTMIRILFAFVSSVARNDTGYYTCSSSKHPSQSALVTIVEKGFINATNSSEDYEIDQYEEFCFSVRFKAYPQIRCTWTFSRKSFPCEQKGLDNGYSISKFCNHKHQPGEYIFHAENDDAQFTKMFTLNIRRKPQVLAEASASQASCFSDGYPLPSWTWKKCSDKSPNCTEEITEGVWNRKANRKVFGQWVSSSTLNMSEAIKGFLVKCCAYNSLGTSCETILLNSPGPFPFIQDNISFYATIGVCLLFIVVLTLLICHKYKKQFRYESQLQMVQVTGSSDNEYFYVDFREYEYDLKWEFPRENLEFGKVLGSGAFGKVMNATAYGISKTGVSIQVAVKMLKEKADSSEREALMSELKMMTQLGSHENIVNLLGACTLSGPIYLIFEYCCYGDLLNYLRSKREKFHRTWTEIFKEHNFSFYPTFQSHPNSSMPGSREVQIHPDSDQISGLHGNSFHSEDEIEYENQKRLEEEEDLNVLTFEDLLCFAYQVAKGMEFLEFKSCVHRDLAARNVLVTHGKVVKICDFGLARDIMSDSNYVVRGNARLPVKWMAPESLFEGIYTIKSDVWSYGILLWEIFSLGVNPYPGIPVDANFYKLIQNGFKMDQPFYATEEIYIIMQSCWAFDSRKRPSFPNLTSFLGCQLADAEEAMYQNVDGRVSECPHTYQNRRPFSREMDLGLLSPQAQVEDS
Measurement Description: FLT3-ITD enzyme inhibition assay
Type: biochemical
Study Conditions: enzyme inhibition; read-out: FLT3-ITD IC50
Include the unit right after the number.

Quick note, IC50 for CCc1c[nH]c2ncc(-c3cccc(N4CCCN(CCN5CC(c6ccc7c(c6)C(=O)N(C6CCC(=O)NC6=O)C7)C5)C4=O)c3)c(Cl)c12 (centres unmarked) landed at 4 nM

Quick note, IC50 for CCc1c[nH]c2ncc(-c3cccc(N4CCCN(CCN5CC(c6ccc7c(c6)C(=O)N(C6CCC(=O)NC6=O)C7=O)C5)C4=O)c3)c(Cl)c12 (centres unmarked) landed at 18.4 nM

Quick note, IC50 for CCc1c[nH]c2ncc(-c3cccc(N4CCCN(CCN5CC=C(c6ccc7c(c6)C(=O)N(C6CCC(=O)NC6=O)C7=O)CC5)C4=O)c3)c(Cl)c12 (centres unmarked) landed at 27.7 nM

Quick note, IC50 for CCc1c[nH]c2ncc(-c3cccc(N4CCCN(CCN5CCN(c6ccc(NC7CCC(=O)NC7=O)cc6F)CC5)C4=O)c3)c(Cl)c12 (centres unmarked) landed at 5.4 nM

Quick note, IC50 for O=C1CCC(N2C(=O)c3cc(F)c(N4CCC(CCN5CCCN(c6cccc(-c7cnc8[nH]cc(C9CC9)c8c7Cl)c6)C5=O)CC4)cc3C2=O)C(=O)N1 (centres unmarked) landed at 36.5 nM
